# Target Entity: UniProt:P51531
# Sequence (P51531 whole entry): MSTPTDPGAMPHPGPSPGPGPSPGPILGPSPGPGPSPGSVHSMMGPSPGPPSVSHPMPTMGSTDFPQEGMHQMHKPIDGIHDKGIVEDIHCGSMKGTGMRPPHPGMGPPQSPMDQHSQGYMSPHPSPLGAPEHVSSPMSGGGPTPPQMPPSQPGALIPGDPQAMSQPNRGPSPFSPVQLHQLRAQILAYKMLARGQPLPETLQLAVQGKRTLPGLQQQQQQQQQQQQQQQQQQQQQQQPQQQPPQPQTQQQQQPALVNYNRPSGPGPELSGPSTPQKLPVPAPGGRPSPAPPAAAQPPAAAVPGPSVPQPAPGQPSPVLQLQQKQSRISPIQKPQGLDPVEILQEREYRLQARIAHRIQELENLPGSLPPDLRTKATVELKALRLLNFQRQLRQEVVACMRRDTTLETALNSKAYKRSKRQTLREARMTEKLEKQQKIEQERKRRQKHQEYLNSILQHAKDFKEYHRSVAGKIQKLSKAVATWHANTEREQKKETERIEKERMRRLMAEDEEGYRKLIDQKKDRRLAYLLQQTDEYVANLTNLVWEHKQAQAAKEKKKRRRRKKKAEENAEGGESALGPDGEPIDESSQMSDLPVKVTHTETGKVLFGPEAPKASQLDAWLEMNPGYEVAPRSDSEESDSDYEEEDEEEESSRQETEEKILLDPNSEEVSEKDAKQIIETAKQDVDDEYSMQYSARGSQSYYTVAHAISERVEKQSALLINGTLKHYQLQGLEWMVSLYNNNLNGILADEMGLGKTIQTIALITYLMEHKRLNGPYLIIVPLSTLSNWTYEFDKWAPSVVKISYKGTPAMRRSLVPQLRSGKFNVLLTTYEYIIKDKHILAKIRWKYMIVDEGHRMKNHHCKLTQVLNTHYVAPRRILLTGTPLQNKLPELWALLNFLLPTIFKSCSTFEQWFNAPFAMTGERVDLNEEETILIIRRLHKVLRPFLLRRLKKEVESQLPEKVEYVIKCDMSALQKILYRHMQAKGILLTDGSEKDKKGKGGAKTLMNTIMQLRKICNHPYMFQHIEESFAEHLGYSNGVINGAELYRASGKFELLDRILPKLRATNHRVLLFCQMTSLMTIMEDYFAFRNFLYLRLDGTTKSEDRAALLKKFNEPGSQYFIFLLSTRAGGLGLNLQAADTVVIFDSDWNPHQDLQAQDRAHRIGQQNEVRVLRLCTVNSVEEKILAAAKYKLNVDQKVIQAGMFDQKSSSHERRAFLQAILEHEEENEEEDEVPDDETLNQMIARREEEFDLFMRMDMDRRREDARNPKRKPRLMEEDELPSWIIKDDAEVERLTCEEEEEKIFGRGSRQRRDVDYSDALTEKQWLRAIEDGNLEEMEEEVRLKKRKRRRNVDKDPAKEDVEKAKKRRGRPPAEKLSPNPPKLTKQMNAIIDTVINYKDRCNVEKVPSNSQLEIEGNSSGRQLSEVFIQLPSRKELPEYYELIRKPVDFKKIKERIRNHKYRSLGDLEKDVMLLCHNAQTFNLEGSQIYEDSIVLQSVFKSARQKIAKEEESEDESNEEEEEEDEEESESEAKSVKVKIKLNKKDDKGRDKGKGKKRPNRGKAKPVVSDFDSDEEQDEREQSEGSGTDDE
# Assay Protocol: SMARCA2 Western blot degradation in MV4-11 cells
# Format: cell-based
# Design: SMARCA2/SMARCA4 protein degradation selectivity in MV4-11 cells; endogenous in cells; host or cells: MV4-11
# Conditions: SMARCA2/4 selectivity, MV4-11 cells
Endpoint Label: Selectivity in MV411

Recorded Selectivity in MV411, per entry:
C#Cc1ccc(CNC(=O)[C@@H]2C[C@@H](O)CN2C(=O)[C@@H](NC(=O)N2CC3(CC(N4C[C@H]5CN(c6cnc(N7CCc8[nH]c9nnc(-c%10ccccc%10O)cc9c8[C@@H]7C)nc6)C[C@H]5C4)C3)C2)C(C)(C)C)cc1    C (C (10-100 fold))
C#Cc1ccc(CNC(=O)[C@@H]2C[C@@H](O)CN2C(=O)[C@@H](NC(=O)N2CCC(N3CC4(CC(N5CC6(CC(N7CCc8[nH]c9nnc(-c%10ccccc%10O)cc9c8[C@H]7C)C6)C5)C4)C3)CC2)C(C)(C)C)cc1    C (C (10-100 fold))
C#Cc1ccc(CNC(=O)[C@@H]2C[C@@H](O)CN2C(=O)[C@@H](NC(=O)[C@H]2CC3(C2)C[C@H](N2CCC(N4CCC(N5CCN6c7cc(-c8ccccc8O)nnc7NC[C@H]6C5)CC4)CC2)C3)C(C)(C)C)c(O)c1 (some centres unmarked) [I-242]    C (C (10-100 fold))
C#Cc1ccc(CNC(=O)[C@@H]2C[C@@H](O)CN2C(=O)[C@@H](NC(=O)[C@H]2CCC3(CC2)C[C@H](N2CCC(N4CCC(N5CCN6c7cc(-c8ccccc8O)nnc7NC[C@H]6C5)CC4)CC2)C3)C(C)(C)C)c(OC)c1 (some centres unmarked) [I-178]    B (B (>100-500 fold))
C#Cc1ccc(CNC(=O)[C@@H]2C[C@@H](O)CN2C(=O)[C@@H](NC(=O)[C@H]2CCC3(CC2)C[C@H](N2CCC(N4CCC(N5CCN6c7cc(-c8ccccc8O)nnc7NC[C@H]6C5)CC4)CC2)C3)C(C)(C)C)c(F)c1 (some centres unmarked) [I-176]    C (C (10-100 fold))

State the recorded Selectivity in MV411 for every item in the following list.
1. C#Cc1ccc(CNC(=O)[C@@H]2C[C@@H](O)CN2C(=O)[C@@H](NC(=O)[C@H]2CCC3(CC2)C[C@H](N2CCC(c4cnc(N5CCN6c7cc(-c8ccccc8O)nnc7NC[C@H]6C5)nc4)CC2)C3)C(C)(C)C)cc1 (single isomer, unassigned) [I-26]
2. C#Cc1ccc(CNC(=O)[C@@H]2C[C@@H](O)CN2C(=O)[C@@H](NC(=O)N2CC3(CC(N4CCC([C@H]5CC[C@H](N6CCc7[nH]c8nnc(-c9ccccc9O)cc8c7[C@H]6C)CC5)CC4)C3)C2)C(C)(C)C)cc1
3. Cc1ncsc1-c1ccc(CNC(=O)[C@@H]2C[C@@H](O)CN2C(=O)[C@@H](NC(=O)C2(F)CC2)C(C)(C)C)c(O[C@H]2CC[C@H](N3CCC(c4cnc(N5CCc6[nH]c7nnc(-c8ccccc8O)cc7c6[C@@H]5C)nc4)CC3)CC2)c1 (single isomer, unassigned)

1. B (B (>100-500 fold))
2. C (C (10-100 fold))
3. C (C (10-100 fold))
